Recorded values, source PubChem BioAssay (NCI).

- Test system: NCI-H460 lung
- ASSAY_INFO: NCI tumour cell line growth inhibition, 48 h
QUANTITY_NAME: TGI

- COMPOUND: "CCC(CCCN)Nc1cc(OC)cc2cccnc12 (stereo not given)"
  SYSTEM: "NCI-H460 lung"
  TGI: "> 100 µM"
- COMPOUND: "c1ccc(CNc2c3c(nc4ccccc24)CCC3)cc1"
  SYSTEM: "NCI-H460 lung"
  TGI: "25 µM"
- COMPOUND: "Cc1cc(-c2ncc(CC(=O)Nc3ccc(-c4cnccn4)cn3)cc2C)ccn1"
  SYSTEM: "NCI-H460 lung"
  TGI: "> 100 µM"
- COMPOUND: "COc1cc2c3c(n(C)c(=O)c2cc1OC)-c1cc2c(cc1/C3=C\\CCCCCN)OCO2"
  SYSTEM: "NCI-H460 lung"
  TGI: "21.7 µM"
- COMPOUND: "CCOC(=O)[C@@]1(C)C=C2O[C@@H]3OC4(CCCCC4)O[C@@H]3C2=C2C(O)=CC=C(O)[C@]21C(=O)OC"
  SYSTEM: "NCI-H460 lung"
  TGI: "> 68 µM"
- COMPOUND: "O=C(Oc1ccc(Cl)cc1Cl)c1ccccc1Nc1ccnc(C(F)(F)F)c1"
  SYSTEM: "NCI-H460 lung"
  TGI: "33.8 µM"
- COMPOUND: "CCN1CC(C)Cn2c(=O)[nH]c3cc(Br)cc1c32 (stereo not given)"
  SYSTEM: "NCI-H460 lung"
  TGI: "> 100 µM"
- COMPOUND: "O=C(c1ccc(Cl)cc1)c1ccc(OCC(=O)N2CCN(c3ccccc3)CC2)cc1"
  SYSTEM: "NCI-H460 lung"
  TGI: "> 100 µM"
- COMPOUND: "CN(C)c1ccc(/C=N/Nc2nc3ccccc3c(=O)n2-c2ccccc2)cc1"
  SYSTEM: "NCI-H460 lung"
  TGI: "> 100 µM"
- COMPOUND: "Cc1cc(C)nc(NS(=O)(=O)c2ccc(Nc3c4ccccc4nc4c(C(=O)Nc5ccc(S(=O)(=O)N=C(N)N)cc5)ccc(Cl)c34)cc2)n1"
  SYSTEM: "NCI-H460 lung"
  TGI: "> 100 µM"

Go through the list and state TGI for each entry.
1. Cc1ccc(F)cc1NC(=O)O/N=C(\Cl)C(C)C
2. COc1ccc(CCn2cnc3ccccc32)cc1
3. CCC1C(=O)C[C@H]2[C@@H]3C(O)CC4=CC(=O)CC[C@]4(C)[C@H]3CC[C@]12C (stereo not given in full)
4. Cc1ccc(CNc2c3ccccc3nc3ccccc23)cc1

["86 µM", "> 100 µM", "> 50 µM", "5.26 µM"]

----------
- Test system: CCRF-CEM leukemia
- ASSAY_INFO: NCI tumour cell line growth inhibition, 48 h; in the data active means GI50 below about 0.43 µM; inactive means the rest
Reply using exactly one outcome from 1 (yes) = active, 0 (no) = inactive

- COMPOUND: "C=C1C(=O)O[C@H]2[C@H]1CC/C(COC(=O)c1cc3cc(F)ccc3[nH]1)=C\\CC[C@@]1(C)O[C@@H]21"
  CLASS_NAME: "0 (no)"
- COMPOUND: "ClCc1cccc(Cn2cnc3c(Cl)ncnc32)c1"
  CLASS_NAME: "0 (no)"
- COMPOUND: "N#Cc1cn(C2OC(CO)C(O)C2O)c2ncnc(N)c12 (centres undefined)"
  CLASS_NAME: "1 (yes)"
- COMPOUND: "CN(C)c1cccc2c(S(=O)(=O)N[C@H]3CC[C@H]4[C@@H]5CCc6cc(O)ccc6[C@H]5CC[C@]34C)cccc12"
  CLASS_NAME: "0 (no)"
- COMPOUND: "COc1ccc(-c2nc3sc(C)cn3c2/C=C/C(=O)c2cc(OC)c(OC)c(OC)c2)cc1"
  CLASS_NAME: "0 (no)"

Please let me know the test result on file for `CC(=O)O[C@H]1CC[C@@]2(C)C(=CC[C@@H]3[C@@H]2CC[C@]2(C)C(c4cccnc4)=CC[C@@H]32)C1` .
0 (no)

Try this compound next: CNC(=O)c1cc(OC2CCC(NC(=O)Nc3ccc(Cl)c(C(F)(F)F)c3)CC2)ccn1 (centres undefined)
0 (no)

Try this compound next: `CCN(CC)CCOc1nc2ccc(OC)cc2c2c1-c1ccc(OC)cc1C2=O`
1 (yes)

Try this compound next: `Cc1ccc(-[n+]2c3cc(N)c(C)cc3nc3cc(C)c(Nc4ccccc4)cc32)cc1`
1 (yes)
